target: DPP-IV (Homo sapiens, UniProt P27487); construct: an extract of the human colon carcinoma cell line Caco-2 is used as the DPP IV source; endogenous in cells; host or cells: Caco-2 (human colon carcinoma), differentiated to induce DPP-IV expression; Nonidet-P40 solubilized extract; test: DPP-IV assay with Caco-2 cell extract as DPP IV source; type: biochemical; conditions: extract of human colon carcinoma cell line Caco-2 as DPP IV source; AFC substrate 100 μM; 60 minutes at ambient temperature; 11-point curves; read-out: DPP IV inhibition IC50
Sequence (P27487 whole entry): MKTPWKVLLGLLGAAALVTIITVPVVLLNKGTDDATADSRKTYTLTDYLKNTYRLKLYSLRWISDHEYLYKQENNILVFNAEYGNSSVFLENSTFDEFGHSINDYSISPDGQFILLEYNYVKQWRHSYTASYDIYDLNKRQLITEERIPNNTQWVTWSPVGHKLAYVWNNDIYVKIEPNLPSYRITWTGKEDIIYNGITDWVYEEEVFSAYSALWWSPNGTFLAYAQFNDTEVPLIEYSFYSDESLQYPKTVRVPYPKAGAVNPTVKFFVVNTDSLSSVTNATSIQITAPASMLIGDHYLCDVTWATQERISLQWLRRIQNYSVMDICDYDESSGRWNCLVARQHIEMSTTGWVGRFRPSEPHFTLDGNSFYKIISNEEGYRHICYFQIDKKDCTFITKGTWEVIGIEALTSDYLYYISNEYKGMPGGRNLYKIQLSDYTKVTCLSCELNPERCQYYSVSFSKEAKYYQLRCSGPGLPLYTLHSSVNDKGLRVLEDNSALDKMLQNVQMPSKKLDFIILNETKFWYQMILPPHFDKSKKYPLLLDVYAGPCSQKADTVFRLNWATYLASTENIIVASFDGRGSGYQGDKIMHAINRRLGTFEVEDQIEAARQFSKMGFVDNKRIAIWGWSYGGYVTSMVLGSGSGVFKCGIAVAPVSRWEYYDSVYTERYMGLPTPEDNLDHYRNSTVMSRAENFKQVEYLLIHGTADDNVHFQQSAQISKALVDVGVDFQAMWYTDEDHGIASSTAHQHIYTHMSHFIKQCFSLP
reportedProperty: IC50 (nM)
Write the value in nM as a bare number.

Below: 4 molecules and their reported IC50.
CC#CCn1c(N2CCC[C@@H](N)C2)nc2c1c(=O)n(CC(=O)c1cccc(OC)c1)c(=O)n2-c1ccccc1 :: 8.1
CC#CCn1c(N2CCC[C@@H](N)C2)nc2c1c(=O)n(Cc1nc(C)c3ccccc3n1)c(=O)n2C1CC1 :: 2.7
CC#CCn1c(N2CCC[C@@H](N)C2)nc2c1c(=O)n(Cc1ccc3ncccc3n1)c(=O)n2-c1ccccc1 :: 4
CC#CCn1c(N2CCC[C@@H](N)C2)nc2c1c(=O)n(Cc1nc(C)c3ccccc3n1)c(=O)n2-c1ccccc1 :: 4.9

Next up:
Query :: State measured IC50 of the molecule CC#CCn1c(N2CCC[C@@H](N)C2)nc2c1c(=O)n(CC(=O)c1cccc3oc(=O)n(C)c13)c(=O)n2C1CC1 with DPP-IV (Homo sapiens, UniProt P27487).
Result :: 3.6

Reference source for all entries: patent US7645763B2
